Listed compounds paired with reported Nuclear localization (% of total cells)
Test system: YAP/TAZ
assayInfo: YAP/TAZ nuclear localization in IPF patient-derived lung fibroblasts treated with dopaminergic agonists
Type: cell-based, human
conditionSummary: IPF-4 patient fibroblasts; 10 μM, 2 hours
Structures can show the parent of a compound that is named as a salt.
assayEndpoint: Nuclear localization (% of total cells)

• CCCN1C[C@H](CSC)C[C@@H]2c3cccc4[nH]cc(c34)C[C@H]21 [Pergolide mesylate, Pergolide] = 65.58 % of total cells
• CCCN(CCC)[C@@H]1CCc2c(OC)cccc2[C@@H]1C.O=C(O)/C=C/C(=O)O [(+)-UH 232 maleate, (+)-UH 232] = 67.27 % of total cells
• CCCN1CCO[C@@H]2c3cc(O)ccc3OC[C@H]21.Cl (racemic) [(±)-PD 128,907•HCl, (±)-PD 128,907] = 60.66 % of total cells
• Cl.NC[C@@H]1O[C@H](c2ccccc2)Cc2c1ccc(O)c2O [A 68930•HCl, A 68930] = 10.26 % of total cells
• CCCN(CCC)CCc1ccc(O)c(O)c1 = 51.82 % of total cells
